Reference source: the supplement of paper PMC9112550

tested on: Escherichia coli TOP10; experiment: shrunken log2 fold change of peptide-encoding DNA abundance (4.5 h post-induction vs induction); higher = less antimicrobial activity (less host growth inhibition); conditions: time post-induction: 4.5 h; library: site-saturation at positions 5, 18, 19, 20
measuredParameter: shrunken log2 fold change

>>> assayresult("RRIRRRPPRLPRPRPRPSPMPRP")
1.54
>>> assayresult("RRIRHRPPRLPRPRPRPMFHPRP")
-0.509
>>> assayresult("RRIRRRPPRLPRPRPRPASQPRP")
0.0789
>>> assayresult("RRIRGRPPRLPRPRPRPDNGPRP")
-0.0263
>>> assayresult("RRIRKRPPRLPRPRPRPVEGPRP")
-0.006
>>> assayresult("RRIRWRPPRLPRPRPRPMYRPRP")
-0.233
>>> assayresult("RRIRVRPPRLPRPRPRPYLWPRP")
-0.269
>>> assayresult("RRIRTRPPRLPRPRPRPCYYPRP")
0.0075
>>> assayresult("RRIRYRPPRLPRPRPRPIICPRP")
-0.185
>>> assayresult("RRIRARPPRLPRPRPRPLALPRP")
0.668
>>> assayresult("RRIRTRPPRLPRPRPRPRRFPRP")
-0.115
>>> assayresult("RRIRHRPPRLPRPRPRPPTRPRP")
0.429
>>> assayresult("RRIRKRPPRLPRPRPRPVYCPRP")
-0.199
>>> assayresult("RRIRWRPPRLPRPRPRPSWDPRP")
0.251
>>> assayresult("RRIRIRPPRLPRPRPRPIQKPRP")
0.00853
>>> assayresult("RRIRHRPPRLPRPRPRPLHDPRP")
-0.277
>>> assayresult("RRIRTRPPRLPRPRPRPHKCPRP")
0.215
>>> assayresult("RRIRLRPPRLPRPRPRPLVKPRP")
-0.00589
>>> assayresult("RRIRHRPPRLPRPRPRPDIHPRP")
-0.171
>>> assayresult("RRIRQRPPRLPRPRPRPRCQPRP")
-0.0547
>>> assayresult("RRIRWRPPRLPRPRPRPDMTPRP")
0.216
>>> assayresult("RRIRDRPPRLPRPRPRPVHRPRP")
0.0594
>>> assayresult("RRIRYRPPRLPRPRPRPVGMPRP")
-0.083
>>> assayresult("RRIRYRPPRLPRPRPRPTTAPRP")
-0.415
>>> assayresult("RRIRTRPPRLPRPRPRPTCQPRP")
0.234
>>> assayresult("RRIRVRPPRLPRPRPRPCPWPRP")
0.0617
>>> assayresult("RRIRQRPPRLPRPRPRPRHMPRP")
-0.316
>>> assayresult("RRIRHRPPRLPRPRPRPHRTPRP")
-0.179
>>> assayresult("RRIRYRPPRLPRPRPRPHQNPRP")
-0.527
>>> assayresult("RRIRARPPRLPRPRPRPRICPRP")
0.29
>>> assayresult("RRIRNRPPRLPRPRPRPEYCPRP")
0.00705
>>> assayresult("RRIRSRPPRLPRPRPRPFEQPRP")
-0.0212
>>> assayresult("RRIRDRPPRLPRPRPRPMRYPRP")
0.104
>>> assayresult("RRIRPRPPRLPRPRPRPNWFPRP")
0.283
>>> assayresult("RRIRERPPRLPRPRPRPPNGPRP")
0.203
>>> assayresult("RRIRWRPPRLPRPRPRPKWYPRP")
-0.235
>>> assayresult("RRIRYRPPRLPRPRPRPELYPRP")
-0.106
>>> assayresult("RRIRIRPPRLPRPRPRPTISPRP")
-0.385
>>> assayresult("RRIRNRPPRLPRPRPRPMLFPRP")
-0.301
>>> assayresult("RRIRLRPPRLPRPRPRPHREPRP")
-0.969
>>> assayresult("RRIRYRPPRLPRPRPRPERDPRP")
0.0217
>>> assayresult("RRIRMRPPRLPRPRPRPMDAPRP")
0.781
>>> assayresult("RRIRRRPPRLPRPRPRPVRIPRP")
-0.00526
>>> assayresult("RRIRIRPPRLPRPRPRPIQCPRP")
0.0629
>>> assayresult("RRIRQRPPRLPRPRPRPIKIPRP")
-0.0595
>>> assayresult("RRIRTRPPRLPRPRPRPSWVPRP")
-0.165
>>> assayresult("RRIRHRPPRLPRPRPRPMNHPRP")
-0.738
>>> assayresult("RRIRGRPPRLPRPRPRPFFPPRP")
0.154
>>> assayresult("RRIRGRPPRLPRPRPRPIATPRP")
3
>>> assayresult("RRIRTRPPRLPRPRPRPSEFPRP")
-0.369
>>> assayresult("RRIRQRPPRLPRPRPRPEVMPRP")
0.0824
>>> assayresult("RRIRHRPPRLPRPRPRPGMKPRP")
-0.113
>>> assayresult("RRIRSRPPRLPRPRPRPEMSPRP")
0.259

---

system: Escherichia coli TOP10; experiment: shrunken log2 fold change of peptide-encoding DNA abundance (4.5 h post-induction vs induction); higher = less antimicrobial activity (less host growth inhibition); conditions: time post-induction: 4.5 h; library: site-saturation at positions 5, 18, 19, 20
Classification field: enter Criterion met for shrunken log2 fold change values not below -0.1, Criterion not met for values below it.

>>> class("RRIRFRPPRLPRPRPRPIYVPRP")
"Criterion not met"
>>> class("RRIRMRPPRLPRPRPRPWSDPRP")
"Criterion not met"
>>> class("RRIRGRPPRLPRPRPRPLVDPRP")
"Criterion met"
>>> class("RRIRWRPPRLPRPRPRPWWPPRP")
"Criterion met"
>>> class("RRIRCRPPRLPRPRPRPFHEPRP")
"Criterion not met"
>>> class("RRIRHRPPRLPRPRPRPGPKPRP")
"Criterion met"
>>> class("RRIRMRPPRLPRPRPRPSYVPRP")
"Criterion not met"
>>> class("RRIRDRPPRLPRPRPRPIHIPRP")
"Criterion not met"
>>> class("RRIRERPPRLPRPRPRPYMAPRP")
"Criterion not met"
>>> class("RRIRSRPPRLPRPRPRPRDGPRP")
"Criterion met"
>>> class("RRIRPRPPRLPRPRPRPEDSPRP")
"Criterion met"
>>> class("RRIRYRPPRLPRPRPRPQQWPRP")
"Criterion met"

---

system: Escherichia coli TOP10; assay: shrunken log2 fold change of peptide-encoding DNA abundance (4.5 h post-induction vs induction); higher = less antimicrobial activity (less host growth inhibition); settings: time post-induction: 4.5 h; library: site-saturation at positions 5, 18, 19, 20
measuredParameter: shrunken log2 fold change

>>> assayresult("RRIRNRPPRLPRPRPRPRANPRP")
0.0572
>>> assayresult("RRIRYRPPRLPRPRPRPMFYPRP")
-1.04
>>> assayresult("RRIRMRPPRLPRPRPRPVQEPRP")
0.051
>>> assayresult("RRIRFRPPRLPRPRPRPLPMPRP")
0.142
>>> assayresult("RRIRCRPPRLPRPRPRPKNIPRP")
-0.607
>>> assayresult("RRIRWRPPRLPRPRPRPPRQPRP")
0.209

---

system: Escherichia coli TOP10; test: shrunken log2 fold change of peptide-encoding DNA abundance (4.5 h post-induction vs induction); higher = less antimicrobial activity (less host growth inhibition); conditions: time post-induction: 4.5 h; library: site-saturation at positions 5, 18, 19, 20
Classification field: enter rule met for shrunken log2 fold change values not below -0.06, rule not met for values below it.

>>> class("RRIRRRPPRLPRPRPRPKENPRP")
"rule met"
>>> class("RRIRLRPPRLPRPRPRPSYMPRP")
"rule not met"
>>> class("RRIRQRPPRLPRPRPRPCDEPRP")
"rule met"
>>> class("RRIRTRPPRLPRPRPRPNCAPRP")
"rule not met"
>>> class("RRIRMRPPRLPRPRPRPQYTPRP")
"rule met"
>>> class("RRIRRRPPRLPRPRPRPSMGPRP")
"rule met"
>>> class("RRIRMRPPRLPRPRPRPDMVPRP")
"rule met"

---

tested on: Escherichia coli TOP10; experiment: shrunken log2 fold change of peptide-encoding DNA abundance (4.5 h post-induction vs induction); higher = less antimicrobial activity (less host growth inhibition); details: time post-induction: 4.5 h; library: site-saturation at positions 5, 18, 19, 20;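 further: peptides expressed intracellularly from a pBAD plasmid library in pooled LB shake-flask culture, induced with 0.3% L-arabinose, DNA abundance read by NGS, three biological replicates, DESeq2 with apeglm shrinkage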
Measured shrunken log2 fold change values are reported for all entries that follow.
measuredParameter: shrunken log2 fold change

>>> assayresult("RRIRTRPPRLPRPRPRPYELPRP")
-0.854
>>> assayresult("RRIRGRPPRLPRPRPRPPSCPRP")
0.654
>>> assayresult("RRIRIRPPRLPRPRPRPWLKPRP")
4.66
>>> assayresult("RRIRMRPPRLPRPRPRPGQNPRP")
0.0316
>>> assayresult("RRIRCRPPRLPRPRPRPIMYPRP")
-0.916
>>> assayresult("RRIRFRPPRLPRPRPRPDCPPRP")
-0.364
>>> assayresult("RRIRRRPPRLPRPRPRPESSPRP")
0.53
